Origin of the recorded values: patent US20240199534A1

Assay: In vivo pharmacokinetics IV and PO (Table 1A)
Parameters: species or system mouse
Conditions: male, CD-1, mouse, plasma, po, 50 mg/kg
parameter.measured: bioavailability

Give its bioavailability value. Item: O=C(N[C@H]1CC[C@H](O)CC1)C1CC1CCCc1ccccc1 (mixture of isomers)
59%
